assay_text: Solubilities
Assay type: physicochemical
test_conditions: methanol
reported_property: solubility in methanol

Take a look at these entries with their results.
## Task Using the record for OCC1CC(NC2C=C(COC3OC(CO)C(O)C(O)C3O)C(O)C(O)C2O)C(O)C(O)C1OC1OC(CO)C(O)C(O)C1O (centres unmarked) , state its measured solubility in methanol.
## Result more sparingly soluble

## Task Using the record for `OCC1=C[C@@H](N[C@@H]2C[C@@H](CO[C@@H]3O[C@H](CO)[C@@H](O)[C@H](O)[C@H]3O)[C@H](O)[C@@H](O)[C@H]2O)[C@H](O)[C@H](O)[C@H]1O` , state its measured solubility in methanol.
## Result soluble

## Task Using the record for OCC1=CC(NC2CC(CO)C(O)C(O)C2O)C(O)C(O)C1O (centres unmarked) , state its measured solubility in methanol.
## Result soluble

## Task Using the record for OCC1=C[C@H](NC2C(O)C(O)C(O)C(CO)C2O)[C@H](O)[C@@H](O)[C@@H]1O (some centres unmarked) , state its measured solubility in methanol.
## Result more sparingly soluble

Here's the next entry for you.
## Task Using the record for `OCC1=C[C@H](N[C@H]2C[C@H](CO)[C@@H](O[C@@H]3O[C@@H](CO)[C@@H](O[C@H]4O[C@@H](CO)[C@@H](O)[C@H](O)[C@H]4O)[C@H](O)[C@H]3O)[C@@H](O)[C@H]2O)[C@@H](O)[C@H](O)[C@H]1O` , state its measured solubility in methanol.
## Result more sparingly soluble

All figures here come from patent US4089947A.
